Protein target, amino acids: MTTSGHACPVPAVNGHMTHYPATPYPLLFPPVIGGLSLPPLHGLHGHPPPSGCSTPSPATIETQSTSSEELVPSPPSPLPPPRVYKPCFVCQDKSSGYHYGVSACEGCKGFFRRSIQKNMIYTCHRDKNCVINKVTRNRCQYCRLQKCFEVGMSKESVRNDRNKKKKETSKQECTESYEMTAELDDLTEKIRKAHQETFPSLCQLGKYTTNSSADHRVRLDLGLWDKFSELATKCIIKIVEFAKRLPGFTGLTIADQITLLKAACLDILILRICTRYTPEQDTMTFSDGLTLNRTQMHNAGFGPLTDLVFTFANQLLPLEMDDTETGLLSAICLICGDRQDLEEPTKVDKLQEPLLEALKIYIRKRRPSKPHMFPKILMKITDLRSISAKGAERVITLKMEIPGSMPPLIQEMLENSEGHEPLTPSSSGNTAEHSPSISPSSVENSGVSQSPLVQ
RECORDED_METRIC: Kd (nM)

INSERT INTO measurements (input_smiles, test_result) VALUES
  ('CC1(C)CC=C(c2cccs2)c2cc(C(=O)Nc3ccc(C(=O)O)cc3)ccc21', 996),
  ('CC1(C)CC=C(c2cccs2)c2cc(C(=O)Oc3ccc(C(=O)O)cc3)ccc21', 189);

====

TARGET_UNDER_TEST: Retinoic acid receptor gamma (Homo sapiens, UniProt P13631)
Sequence (P13631 whole entry): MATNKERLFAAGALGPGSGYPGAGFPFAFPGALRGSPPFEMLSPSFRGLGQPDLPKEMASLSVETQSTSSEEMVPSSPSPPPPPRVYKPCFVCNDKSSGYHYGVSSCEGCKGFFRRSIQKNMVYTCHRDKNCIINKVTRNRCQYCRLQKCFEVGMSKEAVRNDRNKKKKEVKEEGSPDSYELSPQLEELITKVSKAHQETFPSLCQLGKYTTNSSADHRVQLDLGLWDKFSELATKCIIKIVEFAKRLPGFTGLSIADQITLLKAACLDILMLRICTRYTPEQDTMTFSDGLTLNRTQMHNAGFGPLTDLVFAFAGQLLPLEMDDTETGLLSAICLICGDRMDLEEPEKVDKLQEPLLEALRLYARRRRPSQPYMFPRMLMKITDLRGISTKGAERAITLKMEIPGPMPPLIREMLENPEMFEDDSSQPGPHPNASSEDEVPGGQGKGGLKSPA
RECORDED_METRIC: Kd

INSERT INTO assay_data (input_smiles, target_under_test, recorded_metric, test_result) VALUES
  ('CC1(C)CC=C(c2cccs2)c2cc(C(=O)Nc3ccc(C(=O)O)cc3)ccc21', 'Retinoic acid receptor gamma (Homo sapiens, UniProt P13631)', 'Kd', '> 10 µM');

====

TARGET_UNDER_TEST: Retinoic acid receptor beta (Homo sapiens)
Sequence (P10826 whole entry): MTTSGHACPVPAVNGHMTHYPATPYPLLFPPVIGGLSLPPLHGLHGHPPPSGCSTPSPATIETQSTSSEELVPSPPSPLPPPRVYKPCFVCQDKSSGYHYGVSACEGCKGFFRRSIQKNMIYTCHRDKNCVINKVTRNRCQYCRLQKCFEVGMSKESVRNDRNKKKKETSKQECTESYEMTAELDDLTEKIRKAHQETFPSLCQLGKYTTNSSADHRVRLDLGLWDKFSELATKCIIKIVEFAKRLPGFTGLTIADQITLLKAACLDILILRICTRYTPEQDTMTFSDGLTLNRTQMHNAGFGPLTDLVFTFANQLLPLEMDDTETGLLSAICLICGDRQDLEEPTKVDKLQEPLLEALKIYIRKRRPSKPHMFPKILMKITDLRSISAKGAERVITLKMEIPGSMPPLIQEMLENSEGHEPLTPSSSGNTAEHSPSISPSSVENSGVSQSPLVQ
EXPERIMENT_DESCRIPTION: Transcriptional activation in CV-1 cells expressing Retinoic acid receptor RAR beta
RECORDED_METRIC: EC50 (nM)

INSERT INTO measurements (input_smiles, test_result) VALUES
  ('CC1(C)CC=C(c2cccs2)c2cc(C#Cc3ccc(C(=O)O)cc3)ccc21', 25),
  ('CC1(C)CC=C(c2cccs2)c2cc(C(=O)Oc3ccc(C(=O)O)cc3)ccc21', 26),
  ('CC1(C)CC=C(c2cccs2)c2cc(C(=O)Nc3ccc(C(=O)O)cc3)ccc21', 115);
